biological target: Human PDE10A1 (Homo sapiens, UniProt Q9Y233); test: hPDE10A1 Enzyme Inhibition ([3H]-cAMP scintillation assay); format: biochemical
Sequence (Q9Y233 1-779 isoform Q9Y233-1): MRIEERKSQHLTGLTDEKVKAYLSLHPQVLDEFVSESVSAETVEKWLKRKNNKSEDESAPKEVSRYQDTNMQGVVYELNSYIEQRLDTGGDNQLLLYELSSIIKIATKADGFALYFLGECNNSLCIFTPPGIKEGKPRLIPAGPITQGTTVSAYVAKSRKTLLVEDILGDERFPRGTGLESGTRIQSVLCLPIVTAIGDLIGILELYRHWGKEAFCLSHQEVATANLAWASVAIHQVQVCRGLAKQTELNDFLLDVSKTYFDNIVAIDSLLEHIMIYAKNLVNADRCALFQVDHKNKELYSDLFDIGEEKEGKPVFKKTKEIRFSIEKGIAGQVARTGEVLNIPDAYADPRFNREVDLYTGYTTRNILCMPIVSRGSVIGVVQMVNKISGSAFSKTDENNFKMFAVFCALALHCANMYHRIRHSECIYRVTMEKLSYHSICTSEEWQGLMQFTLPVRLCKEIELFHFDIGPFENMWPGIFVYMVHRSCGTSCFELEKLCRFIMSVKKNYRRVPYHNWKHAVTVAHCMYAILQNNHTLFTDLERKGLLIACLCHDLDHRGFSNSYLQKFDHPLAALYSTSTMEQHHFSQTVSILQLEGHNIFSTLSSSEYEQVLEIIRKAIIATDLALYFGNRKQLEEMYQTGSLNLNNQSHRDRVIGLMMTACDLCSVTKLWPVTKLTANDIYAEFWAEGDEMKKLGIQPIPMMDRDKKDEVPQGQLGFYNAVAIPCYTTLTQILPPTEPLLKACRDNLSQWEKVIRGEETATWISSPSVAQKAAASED
Attribute Measured: IC50

{"columns": ["Molecule", "Study System", "Recorded Value"],
 "data": [
  ["CC(C)(C)c1ccc(C2CC2C(=O)N/N=C/c2cccc3cnccc23)cc1 (stereo not shown)", "Human PDE10A1 (Homo sapiens, UniProt Q9Y233)", "< 200 nM"]
]}

----------
target: Human PDE10A1 (Homo sapiens); assay: hPDE10A1 Enzyme Inhibition ([3H]-cAMP scintillation assay); type: biochemical; settings: Human PDE10A1, [3H]-cAMP substrate, 20 minutes at 37° C.; read-out: hPDE10A1 IC50 Band
pIC50: −log10 of the molar value.
Attribute Measured: pIC50

{"columns": ["Molecule", "Study System", "Attribute Measured", "Recorded Value"],
 "data": [
  ["C/C(=N\\NC(=O)C1CC1c1ccc(C(C)(C)C)cc1)c1cccc2cnccc12 (stereo not drawn)", "Human PDE10A1 (Homo sapiens)", "pIC50", "> 6.00"],
  ["O=C(N/N=C/c1cccc2cnccc12)C1CC1c1ccc(-c2ccccc2)cc1 (stereo not drawn)", "Human PDE10A1 (Homo sapiens)", "pIC50", "> 6.70"],
  ["CN(/N=C/c1cccc2cnccc12)C(=O)C1CC1c1ccc(C(C)(C)C)cc1 (stereo not drawn)", "Human PDE10A1 (Homo sapiens)", "pIC50", "> 6.70"]
]}
